Listed below: ELISA_avg values for each entry.
- STUDY SYSTEM: T1, CD123 (Homo sapiens (Human), UniProt P26951 19-305, limits assumed)
- T1 construct: The CD123 construct used in the ELISA is not described; also called CD123-Signal
- T1 sequence: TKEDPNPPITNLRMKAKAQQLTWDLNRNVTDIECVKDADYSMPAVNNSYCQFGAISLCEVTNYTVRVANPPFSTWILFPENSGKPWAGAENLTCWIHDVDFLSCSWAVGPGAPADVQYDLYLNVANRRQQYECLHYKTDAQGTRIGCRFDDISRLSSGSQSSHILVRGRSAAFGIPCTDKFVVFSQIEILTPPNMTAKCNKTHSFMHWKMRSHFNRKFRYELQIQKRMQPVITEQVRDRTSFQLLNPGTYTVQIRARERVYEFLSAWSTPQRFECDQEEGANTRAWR
- EXPERIMENT DESCRIPTION: ELISA
- Parameters: unit not given here
Give the figure by itself; no unit, no explanation.

D domain of SEQ ID NO: 515 (designed binder) MGSWTFFKDDLAEIKWMLEALGGSEAELAWFESDIAYFEDELQWYKGKGNPEVEALRKEAAAIRDELQAYRHN = 3.3
D domain of SEQ ID NO: 644 (designed binder) MGSWEEFEWRLDAIDERLWALGGSEAELATFEYEIAIFENELQQYKGKGNPEVEALDSEAYAIERELGAYRHN = 4.3
D domain of SEQ ID NO: 634 (designed binder) MGSWFEFGDRLEAIDERLYALGGSEAELAQFEWWIAEFEHHLQDYKGKGNPEVEALEYEADAIWGELHAYRHN = 4.5
D domain of SEQ ID NO: 440 (designed binder) MGSWTEFYVRLDAIYERLDALGGSEAELAAFEKEIAAFESELQAYKGKGNPEVEWLRMVAANIRTELQAYRHN = 16
D domain of SEQ ID NO: 598 (designed binder) MGSWFEFDQRLDAITFRLWALGGSEAELAEFEDVIALFEYHLQDYKGKGNPEVEALEVEAWAIFHELGAYRHN = 3.2

Could you tell me which ELISA_avg is on file for D domain of SEQ ID NO: 642 (designed binder) MGSWWEFEDRLYAIDDRLWALGGSEAELAQFEREIAQFEIWLQEYKGKGNPEVEALDDEATAINSELFAYRHN ?
5.5

Return reported ELISA_avg; argument: D domain of SEQ ID NO: 509 (designed binder) MGSWSWFKQDLADIKIQLEALGGSEAELAWFEWDIAEFEFELQDYKGKGNPEVEALRKEAAAIRDELQAYRHN
4

Which ELISA_avg reading was recorded for the binder D domain of SEQ ID NO: 394 (designed binder) MGSWDEFEQRLIAIEERLFALGGSEAELAAFEKEIAAFESELQAYKGKGNPEVEWLREEAAVIRKYLQAYRHN ?
5.9

ELISA_avg for D domain of SEQ ID NO: 588 (designed binder) MGSWEEFDTRLLAIFGRLGALGGSEAELALFEMLIAKFEDDLQNYKGKGNPEVEALSEEAFAIDHELGAYRHN ?
6.7

Dear colleague, I am looking for the recorded ELISA_avg of the following binder: D domain of SEQ ID NO: 385 (designed binder) MGSWDEFGRRLYAIEWRLYALGGSEAELAAFEKEIAAFESELQAYKGKGNPEVEKLREIAAVIRSNLQAYRHN
5.8

Hey, just so you know, these numbers are from patent US20250026849A1.
